Assay: Three-period crossover relative bioavailability study of methotrexate injectable solutions (Vibex device SC vs needle and syringe SC and IM)
Format: in vivo, human
Conditions: human, plasma, sc, 10 mg, 10 mg single dose, subcutaneous with Vibex device, plasma; read-out: AUC(0-24)
metricName: AUC(0-t)

INSERT INTO measurements (compound, metricname, valuemeasured) VALUES
  ('CN(Cc1cnc2nc(N)nc(N)c2n1)c1ccc(C(=O)N[C@@H](CCC(=O)O)C(=O)O)cc1 [methotrexate]', 'AUC(0-t)', '~1150 ng·h/mL');

----------
Assay: Three-period crossover relative bioavailability study of methotrexate injectable solutions (Vibex device SC vs needle and syringe SC and IM)
Type: in vivo, human
Conditions: human, plasma, sc, 15 mg, 15 mg single dose, subcutaneous with Vibex device
metricName: half-life

INSERT INTO measurements (molecule, valuemeasured) VALUES
  ('CN(Cc1cnc2nc(N)nc(N)c2n1)c1ccc(C(=O)N[C@@H](CCC(=O)O)C(=O)O)cc1 [methotrexate]', '~3.68 h');
